- PROCEDURE_TEXT: AUC (0 to infinity) in Sprague-Dawley rat at 2 mg/kg, iv by LC-MS/MS method
- Type: ADME, organism-based
- Parameters: dose 2 mg/kg, time infinity, route intravenous
- ASSAY_CONDITIONS: in vivo
READOUT: AUC(0-inf) (ng·h/mL)
// return numeric value only (unit: ng·h/mL, not printed)

Please report AUC(0-inf) for the following compound: CS(=O)(=O)N1CCN(C(=O)c2cnc3ccc(F)cc3c2-c2ccc(C3(C#N)CC3)cc2)CC1
3160

###

- PROCEDURE_TEXT: Volume of distribution at steady state in Sprague-Dawley rat at 2 mg/kg, iv by LC-MS/MS method
- Type: ADME, organism-based
- ASSAY_CONDITIONS: in vivo, read-out: Vdss
READOUT: Vd (L/kg)
// return numeric value only (unit: L/kg, not printed)

Please report Vd for the following compound: CS(=O)(=O)N1CCN(C(=O)c2cnc3ccc(F)cc3c2-c2ccc(C3(C#N)CC3)cc2)CC1
0.7

###

Can you tell me Papp for the items I'm about to list?
- PROCEDURE_TEXT: Apparent permeability across apical to basolateral side in human Caco2 cells
- Assay type: ADME, cell-based
- ASSAY_CONDITIONS: caco-2
// return numeric value only (unit: ×10⁻⁶ cm/s, not printed)

Please report Papp for the following molecule: CS(=O)(=O)N1CCN(C(=O)c2cnc3ccc(F)cc3c2-c2ccc(C3(C#N)CC3)cc2)CC1
5.76

Please report Papp for the following molecule: CS(=O)(=O)N1CCN(C(=O)c2cnc3ccc(F)cc3c2N2CCC(C#N)(c3ccccc3)CC2)CC1
11.4

###

Can you tell me permeability for the items I'm about to list?
- PROCEDURE_TEXT: Permeability of the compound by PAMPA
- Type: ADME
// return numeric value only (unit: ×10⁻⁶ cm/s, not printed)

Please report permeability for the following molecule: CS(=O)(=O)N1CCN(C(=O)c2cnc3ccc(F)cc3c2-c2ccc(C3(C#N)CC3)cc2)CC1
388

Please report permeability for the following molecule: CS(=O)(=O)N1CCN(C(=O)c2cnc3ccc(F)cc3c2N2CCC(C#N)(c3ccccc3)CC2)CC1
725

The reported numbers originate from ChEMBL document CHEMBL4184337.
